Experiment: qHTS Assay for Spectroscopic Profiling in A647 Spectral Region
Settings: Compound fluorescence, A647 channel (570/671 nm), Tris buffer; hits give high values
From the text: NIH Molecular Libraries Screening Centers Network [MLSCN] NIH Chemical Genomics Center [NCGC] […] While the most informative fluorescent profiling data set is obtained by performing a full excitation and emission scan of each well by using a monochromator-based plate reader, such an approach is practical only on a very limited scale as scanning each well requires long time. […]
Among all 59,000 compounds or so, fewer than 10 were called active. The list is a sample of the results.
VALUE_KIND: max dye-equivalent concentration

                                    compound             result
 0  CC[N+](C)(CC)CCC[n+]1c(-c2ccccc2)c2cc(N)ccc2c2ccc(N)cc21  1.7 nM (inactive)
 1  CC(C)c1ccc(N2CC(C(=O)Nc3nccs3)CC2=O)cc1 (configuration not stated)    1 nM (inactive)
 2  O=C(OCC(=O)N1CCN(C(=O)c2ccco2)CC1)c1ccccc1Cc1ccccc1  7.2 nM (inactive)
 3    CCN(CC)C(=O)N1CCN(C(=O)c2ccc(C)cn2)CC1    1 nM (inactive)
 4  O=c1c(-c2cccs2)nc2cnc(Oc3ccccc3)nc2n1-c1ccccc1  2.8 nM (inactive)
 5  Cc1ccc(NC(=O)C2CCCN(S(=O)(=O)c3c(C)noc3C)C2)c(C)c1 (configuration not stated)  5.9 nM (inactive)
 6  O=S(=O)(c1cccc(S(=O)(=O)N2CCC(n3nnc4ccccc43)CC2)c1)N1CCCCC1   23 nM (inactive)
 7  Cc1cccc2cc(CN(Cc3ccc4c(c3)OCO4)Cc3nnnn3C3CCCC3)c(=O)[nH]c12    1 nM (inactive)
 8  Cc1nc2ncnn2c(C)c1CCC(=O)N1CCN(C(=O)c2ccco2)CC1    1 nM (inactive)
 9  Cc1ccccc1C(=O)Nc1cccc(-c2nnc(SCC(=O)O)n2C)c1   18 nM (inactive)
10  COc1ccc(C2OC(=O)CC2C(=O)NC(C)C)cc1 (configuration not stated)  2.6 nM (inactive)
11  Cn1c(NC(=O)c2ccco2)c(-c2ccccc2Cl)c(=O)c2ccccc21    1 nM (inactive)
12        COCCCn1c(CCC(=O)O)ccc1-c1ccc(F)cc1   26 nM (inactive)
13  CCOc1cc(-c2nc3cc(C)ccn3c2NCC2CCCO2)ccc1O (configuration not stated)   14 nM (inactive)
14  CCn1c(Cc2ccccc2)nnc1SCc1nc2ccccc2c(=O)[nH]1  3.7 nM (inactive)
15                      O=C(/C=N/O)Nc1ccccc1    1 nM (inactive)
16  CCOC(=O)N1CCN(S(=O)(=O)c2ccc(C(=O)Nc3ccc(F)cc3F)cc2)CC1   29 nM (inactive)
17  C[C@@H]1CC[C@H]2[C@H](C)[C@H]3[C@H](C[C@H]4[C@@H]5CC=C6C[C@@H](O)CC[C@@]6(C)[C@@H]5C[C@@H](O)[C@]34C)N2C1  2.4 nM (inactive)
18      CCCNC(=O)Nc1ccccc1C(=O)Nc1ccc(OC)cc1  1.2 nM (inactive)
19  O=C(Nc1ccccc1C(=O)N1CCOCC1)C1CCC(=O)N1C1CCCC1 (configuration not stated)   14 nM (inactive)
20       CCCc1cc(=O)n2[nH]c(SCc3ccccc3)nc2n1   28 nM (inactive)
21     Cc1ccc(S(=O)(=O)NCc2cn3ccsc3n2)c(C)c1   18 nM (inactive)
